MIC P. aeruginosa by entry:
Test system: P. aeruginosa
Experiment: MIC against P. aeruginosa
Format: cell-based, Pseudomonas aeruginosa
Where no end group is shown, it is not given here.

Example entries begin here.
substance	recorded.value
WRIHLRARLHVKFRF [Peptide S3L8-4, WRIHLRARLHVKFRF]	>125 µg/mL
VLKHVIAHKRLF [Peptide S3L8-25, VLKHVIAHKRLF]	>125 µg/mL

For LRHRLRHRLIF [Peptide S3L8-31, LRHRLRHRLIF] , what is its reported MIC P. aeruginosa?
>125 µg/mL

Tell me the measured MIC P. aeruginosa of FRHRFRHRF [Peptide S3L8-34, FRHRFRHRF] , please.
>125 µg/mL

State the recorded MIC P. aeruginosa for this entry: VFIVWVHKHVLF [Peptide S3L8-2, VFIVWVHKHVLF]
>125 µg/mL

State the recorded MIC P. aeruginosa for this entry: LRLRHRVLF [Peptide S3L8-37, LRLRHRVLF]
>125 µg/mL

* * *

Test system: S. gordonii Challis DL1
Assay type: cell-based, Streptococcus gordonii
Procedure: S. mutans clinical isolates UA140 (32), UA159 (1), T8 (33), ATCC 25175, GS5 (Kuramitsu and Ingersoll (1977) Infect Immun., 17: 330-337), and all gram-positive strains listed below (see Table 9) were grown under anaerobic conditions in brain heart infusion or Todd-Hewitt (TH) broth (Difco) overnight at 37° C. prior to use (Eckert et al. (2006) Antimicrob. Agents Chemother. 50: 3651-3657). […]
Where no end group is shown, it is not given here.
Listing of entries alongside the reported MIC S. gordonii Challis DL1.
Entry rule: numbers only, all in µg/mL.

Some solved entries appear below for comparison.
substance	scale.unit	MIC S. gordonii Challis DL1
IKQLLHFFQRF-NH2 [Peptide B-38, IKQLLHFFQRF*]	µg/mL	32
RWRWRWF-NH2 [Peptide 2C-4, RWRWRWF*]	µg/mL	32
FKKFWKWFRRFGGGRWRWRWF-NH2 [FBRW-14, FKKFWKWFRRF-GGG-RWRWRWF*]	µg/mL	32
IKQLLHFFQRFGGGRWRWRWF-NH2 [FBRW-15, IKQLLHFFQRF-GGG-RWRWRWF*]	µg/mL	32
LKRFLKWFKRF-NH2 [Peptide B-34, LKRFLKWFKRF*]	µg/mL	32
RRRWWWF-NH2 [Peptide 2C-3, RRRWWWF*]	µg/mL	32
RWRWRWFGGGFKKFWKWFRRF-NH2 [FBRW-22, RWRWRWF-GGG-FKKFWKWFRRF*]	µg/mL	16
RWRRLLKKLHHLLHGGGFKKFWKWFRRF-NH2 [FBα-20, RWRRLLKKLHHLLH-GGG-FKKFWKWFRRF*]	µg/mL	16

For RWRRLLKKLHHLLH-NH2 [α-11, RWRRLLKKLHHLLH*] , what is its reported MIC S. gordonii Challis DL1?
16

For the substance LKRFLKWFKRFGGGRWRWRWF-NH2 [FBRW-16, LKRFLKWFKRF-GGG-RWRWRWF*] , what MIC S. gordonii Challis DL1 is on record?
64

Entry FKKFWKWFRRF-NH2 [Peptide B-33, FKKFWKWFRRF*] : reported MIC S. gordonii Challis DL1 = ?
32

Quick one: MIC S. gordonii Challis DL1 of RWRWRWFGGGLKRFLKWFKRF-NH2 [FBRW-24, RWRWRWF-GGG-LKRFLKWFKRF*] ?
32

* * *

Tested on: clinical isolates of S. mutans
Assay type: cell-based, Streptococcus mutans
Conditions: clinical isolates of
Where no end group is shown, it is not given here.
# MIC S. mutans per entry

I'd like to know its MIC S. mutans. The substance in question is FKFLFKHKF [Peptide S3L8-40, FKFLFKHKF]
30 µg/mL

* * *

Tested on: S. mutans UA159
Assay: Killing kinetics (time-kill assay)
Type: cell-based, Streptococcus mutans
Conditions: peptide 25 μg/ml, UA159
Where no end group is shown, it is not given here.
measured.quantity: TC, time required to kill 3 log10 of recoverable CFU/ml

substance	recorded.value
RRRWWWFPSGSPRRRWWWF-NH2 [FRW-4, RRRWWWF-PSGSP-RRRWWWF*]	420 min
RRRWWWFASASARRRWWWF-NH2 [FRW-3, RRRWWWF-ASASA-RRRWWWF*]	480 min
RWRWRWFASASARWRWRWF-NH2 [FRW-9, RWRWRWF-ASASA-RWRWRWF*]	45 min

Endpoint output: TC, time required to kill 3 log10 of recoverable CFU/ml of RWRWRWFPSGSPRWRWRWF-NH2 [FRW-10, RWRWRWF-PSGSP-RWRWRWF*] . Value?
270 min

TC, time required to kill 3 log10 of recoverable CFU/ml for RWRWRWFGGGRWRWRWF-NH2 [FRW-11, RWRWRWF-GGG-RWRWRWF*] ?
90 min

Please look up its TC, time required to kill 3 log10 of recoverable CFU/ml: RRRWWWFGGGRRRWWWF-NH2 [FRW-5, RRRWWWF-GGG-RRRWWWF*]
270 min

Which TC, time required to kill 3 log10 of recoverable CFU/ml is reported for this substance? RRRWWWF-NH2 [Peptide 2C-3, RRRWWWF*]
220 min

TC, time required to kill 3 log10 of recoverable CFU/ml for RWRWRWFRWRWRWF-NH2 [FRW-8, RWRWRWFRWRWRWF*] ?
50 min

* * *

Tested on: P. aeruginosa
Test: MIC against P. aeruginosa
Assay type: cell-based, Pseudomonas aeruginosa
Where no end group is shown, it is not given here.
MIC P. aeruginosa values by entry

Known MIC P. aeruginosa results, listed for orientation:
substance	MIC P. aeruginosa
FKAHIRFKLRVKFHF [Peptide S3L8-10, FKAHIRFKLRVKFHF]	>125 µg/mL
LRLFLRF [Peptide S3L8-43, LRLFLRF]	>125 µg/mL
KLVKLVFLY-NH2 [Peptide S6L1-6, KLVKLVFLY*]	>500 µg/mL

Dear colleague, I am looking for the recorded MIC P. aeruginosa of the following substance: KFVKLILAY-NH2 [Peptide S6L1-5, KFVKLI LAY*]
92 µg/mL

Quick check: MIC P. aeruginosa of LVHKLILRHLLF [Peptide S3L8-22, LVHKLILRHLLF] ?
>125 µg/mL

Value lookup for MIC P. aeruginosa; key = FLFRHRFRHRLVF [Peptide S3L8-28, FLFRHRFRHRLVF]
>125 µg/mL

Look up MIC P. aeruginosa: FHIKFRVHLKVRFHF [Peptide S3L8-6, FHIKFRVHLKVRFHF]
>125 µg/mL

Which MIC P. aeruginosa value is on record for LILKFLFKFVF [Peptide S3L8-32, LILKFLFKFVF] ?
>125 µg/mL

* * *

Dear all, this message contains MIC S. aureus results, target or system S. aureus.
Where no end group is shown, it is not given here.

Guide cases for MIC S. aureus, answers given:
item.sequence	MIC S. aureus
LRIHARFKVHIRLKF [Peptide S3L8-5, LRIHARFKVHIRLKF]	>125 µg/mL
VFIVWVHKHVLF [Peptide S3L8-2, VFIVWVHKHVLF]	>125 µg/mL
FHVKIHFRLHVKFHF [Peptide S3L8-7, FHVKIHFRLHVKFHF]	>125 µg/mL
VLIRILVRVIF [Peptide S3L8-33, VLIRILVRVIF]	125 µg/mL

Query sequence follows.
State the recorded MIC S. aureus for this entry: FLFRHRFRHRLVF [Peptide S3L8-28, FLFRHRFRHRLVF]
>125 µg/mL

* * *

Test system: S. aureus
Where no end group is shown, it is not given here.
MIC S. aureus values, listed per item

item.sequence	MIC S. aureus
VFKRVLIHKLIF [Peptide S3L8-23, VFKRVLIHKLIF]	>125 µg/mL
FKHKFKHKFIF [Peptide S3L8-30, FKHKFKHKFIF]	>125 µg/mL
WRWRARWRWRLRWRF [Peptide S3L8-3, WRWRARWRWRLRWRF]	16 µg/mL
WIWKHKFLHRHFLF [Peptide S3L8-12, WIWKHKFLHRHFLF]	>125 µg/mL
FKFLFKHKF [Peptide S3L8-40, FKFLFKHKF]	>125 µg/mL
LRHRLRHRLIF [Peptide S3L8-31, LRHRLRHRLIF]	>125 µg/mL
LVHKLILRHLLF [Peptide S3L8-22, LVHKLILRHLLF]	>125 µg/mL
VLKHVIAHKRLF [Peptide S3L8-25, VLKHVIAHKRLF]	>125 µg/mL

So what does the record say about MIC S. aureus for LKAKIKFKVKLKIKF [Peptide S3L8-11, LKAKIKFKVKLKIKF] ?
125 µg/mL

If you can, please state the reported MIC S. aureus value of VFRHRFIHRHVF [Peptide S3L8-19, VFRHRFIHRHVF] .
>125 µg/mL

Value lookup for MIC S. aureus; key = LRLRHRVLF [Peptide S3L8-37, LRLRHRVLF]
>125 µg/mL
